# System: HEK-293T
# MEASUREMENT_DESCRIPTION: Multiplex assay against HEK293T
# Type: toxicity, cell-based
# MEASUREMENT_CONTEXT: human, 48 h, 1 µM, compound concentration 1 uM, replicate 1
Would you kindly list Population Mitochondria Different-Phenotype (%) for each of these molecules?
Answers are plain numbers, in %.

[
  {
    "MOLECULE": "CC(=O)Nc1cccc2c1c(Sc1ccc(Cl)cc1)c(C)n2CC(=O)O",
    "OBSERVED_VALUE": 18
  },
  {
    "MOLECULE": "COC[C@@H](c1ccc(C(F)(F)F)cc1)N1CCN(C2(C)CCN(C(=O)c3c(C)ncnc3C)CC2)C[C@@H]1C.O=C(O)/C=C\\C(=O)O [VICRIVIROC MALEATE]",
    "OBSERVED_VALUE": 13
  },
  {
    "MOLECULE": "COc1cccc2c1c(NS(=O)(=O)c1ccc(Cl)s1)nn2Cc1cccc(CNC(=O)C(C)(C)O)c1",
    "OBSERVED_VALUE": 18
  },
  {
    "MOLECULE": "CCCCCC(O)/C=C/[C@H]1C(=O)CC(O)C1C/C=C\\CCCC(=O)O (stereo not given in full)",
    "OBSERVED_VALUE": 20
  },
  {
    "MOLECULE": "Cc1onc(-c2ccccc2Cl)c1C(=O)N(C)c1ccc(Cl)cc1",
    "OBSERVED_VALUE": 11
  },
  {
    "MOLECULE": "CCCOc1ccc2[nH]cc(C3=CCNCC3)c2n1.Cl",
    "OBSERVED_VALUE": 15
  },
  {
    "MOLECULE": "CC[C@@H](C)Nc1nc(C)nc2c(-c3ccc(OC)nc3C)c(C)nn12",
    "OBSERVED_VALUE": 22
  },
  {
    "MOLECULE": "CN(C)C(=O)Cn1cc(-c2ccc(-c3cncc4ccccc34)cc2)cn1",
    "OBSERVED_VALUE": 40
  },
  {
    "MOLECULE": "O=C1[C@H](Cc2ccc(O)cc2)N2C(=O)CCN(C(=O)NCc3ccccc3)[C@H]2CN1Cc1cccc2ccccc12",
    "OBSERVED_VALUE": 34
  },
  {
    "MOLECULE": "NCCc1cn(S(=O)(=O)c2c(Cl)nc3sccn23)c2ccccc12.O=C(O)C(=O)O",
    "OBSERVED_VALUE": 22
  }
]

I would be grateful if you could provide Population Mitochondria Different-Phenotype (%) for each of the following entries.
1. N#Cc1c(Oc2cccc(OS(=O)(=O)CCCC(F)(F)F)c2)cccc1C(F)(F)F
2. Cc1cnc(-c2cc(N3CCN(C(=O)CCS(C)(=O)=O)CC3)ncc2Cl)c(C)c1
3. Cc1noc(-c2ccc(-c3ccc(CC(=O)O)cc3)cc2)c1NC(=O)O[C@H](C)c1ccccc1Cl
4. CC(/C=C1\SC(=S)N(CCCC(=O)Nc2ccc(C(=O)O)c(O)c2)C1=O)=C\c1ccccc1
5. Cl.NCCc1ccc(O)c(O)c1 [DOPAMINE HYDROCHLORIDE]

## Output
1. 21
2. 17
3. 20
4. 16
5. 23
